FYI, the data here is from the supplement of paper PMC10981050.

Test system: MARIMO;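 further: after 48 h exposure read by CellTiter-Glo luminescence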
Test: cell viability relative to vehicle control; higher = less cytotoxic
Conditions: 10 µM; SRSF2 genotype: SRSF2 P95H/wt
Where a name gives a salt, the structure may show the parent alone.
Quick rule for you: cell viability under 90% gets label 1, anything else gets label 0.

- OC[C@H]1NC[C@H](O)[C@@H](O)[C@@H]1O [1-Deoxynojirimycin]: label 0
- O=C(Nc1ccc(-c2ccnc(Nc3ccc(N4CCOCC4)cc3)n2)cc1)C1CCCN1 (centres undefined): label 1
- Nc1ccc(S(=O)(=O)Nc2nccs2)cc1 [Sulfathiazole]: label 0
- NCCCCCNCC12CC3CC(CC(C3)C1)C2 [IEM 1754 dihydrobroMide]: label 0
- C[C@H]1COc2c(N3CCN(C)CC3)c(F)cc3c(=O)c(C(=O)O)cn1c23 [Levofloxacin hydrate]: label 0
- C/C=C(/C)C(=O)O[C@H]1[C@@H](OC(=O)CC(C)C)c2c(ccc3ccc(=O)oc23)OC1(C)C [Praeruptorin E]: label 1
- O=C(/C=C/c1ccc(O)c2c1[C@H](C(=O)O)[C@@H](c1ccc(O)c(O)c1)O2)O[C@H](Cc1ccc(O)c(O)c1)C(=O)O [Lithospermic acid]: label 0
- CNC(=O)c1ccccc1Nc1cc(Nc2ccc(N3CCOCC3)cc2OC)ncc1C(F)(F)F: label 1
- Cc1oncc1C(=O)Nc1ccc(C(F)(F)F)cc1 [Leflunomide]: label 0
